Values from paper PMC9918900

Entries and their inhibition at 31.25 µM values follow.
Target: α-amylase (Homo sapiens, UniProt P04746)
Sequence (P04746 16-511): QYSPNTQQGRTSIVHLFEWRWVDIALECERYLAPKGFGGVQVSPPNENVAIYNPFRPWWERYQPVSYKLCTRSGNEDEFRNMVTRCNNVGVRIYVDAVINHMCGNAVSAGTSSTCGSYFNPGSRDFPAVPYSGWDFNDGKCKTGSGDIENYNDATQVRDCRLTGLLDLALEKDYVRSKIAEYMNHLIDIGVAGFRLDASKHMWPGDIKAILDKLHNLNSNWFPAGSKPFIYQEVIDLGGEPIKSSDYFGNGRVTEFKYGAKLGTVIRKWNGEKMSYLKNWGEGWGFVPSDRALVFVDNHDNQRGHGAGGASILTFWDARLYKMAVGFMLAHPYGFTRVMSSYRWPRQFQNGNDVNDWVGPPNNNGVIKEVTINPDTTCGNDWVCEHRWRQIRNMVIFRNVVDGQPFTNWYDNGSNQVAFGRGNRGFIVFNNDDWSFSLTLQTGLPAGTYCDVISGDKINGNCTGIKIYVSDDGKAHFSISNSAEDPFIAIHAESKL
Experiment: in vitro α-amylase inhibitory activity
Format: biochemical
Conditions: 31.25 µM; read-out: % α-Amylase Inhibition (converted)
Experimental: The test samples were added in alpha-amylase solution. The enzyme solution was prepared with enzyme and buffer solution. The mixture of the samples and enzyme was then incubated. Then, starch and dinitrosalicylic acid solution was added. The same was performed for both test compounds and the standard drug. […] The percent alpha-amylase inhibition activity and its IC50 values were calculated and confirmed as per the previous procedure.
# value in %; strip the unit string

Below: 3 compounds and their reported inhibition at 31.25 µM.
compound="COc1ccc(N2C(=O)C[C@@H](C(C)(C)/C=C3\\SC(=O)N(C(=O)CN4CCOCC4)C3=O)C2=O)cc1 [10e]" value_unit=% endpoint_result=73.4
compound="CC(C)(/C=C1\\SC(=O)N(C(=O)CN2CCOCC2)C1=O)[C@@H]1CC(=O)N(c2ccccc2)C1=O [10c]" value_unit=% endpoint_result=62.4
compound="CC(C)(C=C1SC(=O)N(C(=O)CN2CCOCC2)C1=O)C1CC(=O)N(Cc2ccccc2)C1=O (centres unmarked) [10d]" value_unit=% endpoint_result=68.6

Look at this compound and give its reported inhibition at 31.25 µM. CC(C)(/C=C1\SC(=O)N(C(=O)CN2CCOCC2)C1=O)[C@@H]1CC(=O)NC1=O [10a]
54.6

Name the reported inhibition at 31.25 µM value associated with the compound CN1C(=O)C[C@@H](C(C)(C)/C=C2\SC(=O)N(C(=O)CN3CCOCC3)C2=O)C1=O [10b]
48.5
